Data origin, for the record: patent US20240352105A1

Reported Maximum Rate of Blocking values are given for each entry in this list.
# system.tested: T1, recombinant His-tagged Der p1 (dust mite, UniProt P08176 99-320, limits assumed)
# T1 sequence (looked up): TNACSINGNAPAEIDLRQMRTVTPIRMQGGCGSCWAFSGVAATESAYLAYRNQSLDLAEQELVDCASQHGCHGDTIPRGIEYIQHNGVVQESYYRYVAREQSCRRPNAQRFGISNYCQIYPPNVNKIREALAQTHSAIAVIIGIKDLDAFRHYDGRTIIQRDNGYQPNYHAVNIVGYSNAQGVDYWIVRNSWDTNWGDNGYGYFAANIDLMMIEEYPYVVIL
# protocol.notes: cell-based or functional assay
Reply with just the number.

>>> readout_value("SDAB22129-55-35-46-49-1-H08 (VHH, Expressed from a prokaryotic vector) VHH: EVQLVESGGGLVQAGGSLTLSCGRTTSIWGMGWFRQGRGKEREFVAAITPSGSITFYSDHVKGRFTVSRDNALNTVYLQMNSLKPEDTAVYYCARRGSSGSYYWAGSYEAWGQGTQVTVSS")
92.8
>>> readout_value("SDAB22129-55-35-46-49-1-G07 (VHH, Expressed from a prokaryotic vector) VHH: QVQLVESGGGLVQAGGSLRLSCAASGRTFSSYAMGWFRQAPGKERELVATISWSGGSTYYADSVKGRFTISRDNAKNTGFLQMNSLKPEDTAVYYCAADFASTVGTPLTRPAYWGQGTQVTVSS")
93.3
>>> readout_value("SDAB22129-55-35-46-49-1-C12 (VHH, Expressed from a prokaryotic vector) VHH: QVQLVESGGGLVQAGGSLRLSCAASGRTFSSYAMGWFRQAPGKEREFVAIISNTGGLTDYAHSVKGRFTISRDNAKNTGYLQMNSLKPEDTALYYCAADFLGPKSWPSYWGQGTQVTVSS")
91.6
>>> readout_value("SDAB22129-55-35-46-49-1-B12 (VHH, Expressed from a prokaryotic vector) VHH: QVQLVESGGGLVQAGGPLRLSCAASGRTFSSYAMGWFRQAPGKEREFVAAISWSGDSTYYADSVKGRFTLSRDNAKNTVYLQMNSLKPEDTAVYYCAVPSSGRGTYYYTLSAYEYWGQGTQVTVFS")
95.4
>>> readout_value("SDAB22129-55-35-46-49-1-B02 (VHH, Expressed from a prokaryotic vector) VHH: QLQLVESGGGLVQSGGSLRLSCVAKGGTNHPYPIGWFRQAPGKEQEGVLCIASGGQTQDSAHNPNWADSVKGRFTISRDDATHTVYLEMNNLKADDTAVYFCAAPREIYIDSRCATYKYEYWGQGTQVTVSP")
75.4
>>> readout_value("SDAB22129-55-35-46-49-1-G02 (VHH, Expressed from a prokaryotic vector) VHH: QLQLVESGGGLVQAGGSLRLSCTASGRTFRNFGMGWFRQAPGKERKLVASISYVGGNTDYADSVKGRFTISMDNAKNTVVLQMNSLKPEDTAMYYCAARNPNRNEYPWWGQGTQVTVSS")
85.2

Below: the item to evaluate.
I am curious: what Maximum Rate of Blocking value has been reported for SDAB22129-55-35-46-49-1-D01 (VHH, Expressed from a prokaryotic vector) VHH: QVQLVESGGGLVQAGGSLRLSCAASGRTFSRYAMGWFRQAPGKEREFVAAITGSGSRTYYADSIQGRFTISRDNAKNTVYLQMNSLKPEDTAVYYCVQGWAEATMTSLGEDYDYWGQGTQVTVSS ? 73
